IC50 for assorted compounds
target: human Src enzyme (Homo sapiens); construct: purchased Carna Biosciences, Inc. 08-173; assay: Src enzyme inhibitory activity (time-resolved fluorometry, biotinylated peptide phosphorylation); type: biochemical; details: biotinylated peptide phosphorylation, read-out: SRC_IC50
Answer in nM, number only, no unit symbol.

>>> reported("COc1cc2[nH]c(C(=O)c3cnn(-c4cnc(Oc5ccccc5F)cc4C)c3N)cc2cc1NS(C)(=O)=O")
5.8
>>> reported("Cc1cc(Oc2ccccc2F)ccc1-n1ncc(C(=O)c2cc3cc(OCC(F)F)c(C4CCN(C(=O)CN)CC4)cc3[nH]2)c1N")
16
>>> reported("Cc1cc(Oc2ccccc2F)ncc1-n1ncc(C(=O)c2cc3cc(OC(F)F)c(NS(=O)(=O)N4CCOCC4)cc3[nH]2)c1N")
240

IC50 on human Src enzyme (Homo sapiens) for Cc1cc(Oc2c(F)cccc2F)ncc1-n1ncc(C(=O)c2cc3cc(OCC(F)F)c(N4CCCS4(=O)=O)cc3[nH]2)c1N is 11

IC50 on human Src enzyme (Homo sapiens) for Cc1cnc(F)c(S(=O)(=O)Nc2cc3[nH]c(C(=O)c4cnn(-c5ccc(Oc6ccccc6F)cc5C)c4N)cc3cc2F)c1 is 250

IC50 on human Src enzyme (Homo sapiens) for Cc1ccccc1Oc1cc(C)c(-n2ncc(C(=O)c3cc4cc(Cl)c(NS(C)(=O)=O)cc4[nH]3)c2N)cn1 is 110

IC50 on human Src enzyme (Homo sapiens) for Cc1cc(Oc2ccccc2F)ccc1-n1ncc(C(=O)c2cc3cc(F)c(NS(=O)(=O)C4(CC(O)CO)CC4)cc3[nH]2)c1N (stereo not shown) is 31

IC50 on human Src enzyme (Homo sapiens) for Cc1cc(Oc2cccc(F)c2F)ccc1-n1ncc(C(=O)c2cc3cc(C4CCN(C(C)C)CC4)c(F)cc3[nH]2)c1N is 3.5

IC50 on human Src enzyme (Homo sapiens) for COc1cc2cc(C(=O)c3cnn(-c4cnc(Oc5ccccc5F)cc4C)c3N)[nH]c2cc1NS(=O)(=O)N1CCOCC1 is 140

---

pIC50 for assorted compounds
molecular target: human Yes1 enzyme (Homo sapiens, UniProt P07947); construct: made in house; experiment: Yes1 enzyme inhibitory activity (time-resolved fluorometry, biotinylated peptide phosphorylation); format: biochemical; conditions: read-out: YES_IC50
Sequence (P07947 whole entry): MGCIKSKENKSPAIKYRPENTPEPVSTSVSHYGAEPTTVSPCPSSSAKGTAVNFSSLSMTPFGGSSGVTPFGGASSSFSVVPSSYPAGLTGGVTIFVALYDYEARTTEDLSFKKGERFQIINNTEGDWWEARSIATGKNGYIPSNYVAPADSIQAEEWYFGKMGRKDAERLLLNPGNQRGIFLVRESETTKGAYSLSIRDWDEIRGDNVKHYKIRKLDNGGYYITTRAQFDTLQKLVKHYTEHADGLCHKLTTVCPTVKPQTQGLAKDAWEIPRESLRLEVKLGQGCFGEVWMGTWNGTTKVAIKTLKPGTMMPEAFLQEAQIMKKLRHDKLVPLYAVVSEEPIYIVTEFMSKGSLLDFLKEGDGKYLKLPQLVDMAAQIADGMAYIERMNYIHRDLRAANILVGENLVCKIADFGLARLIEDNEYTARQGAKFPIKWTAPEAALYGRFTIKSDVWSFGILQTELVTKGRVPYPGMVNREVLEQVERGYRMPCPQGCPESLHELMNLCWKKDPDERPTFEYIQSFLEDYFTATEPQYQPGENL
Interpret pIC50 as the negative base-10 log of the concentration measured in mol/L.

Some solved entries appear below for comparison.
>>> reported("Cc1cc(-n2ncc(C(=O)c3cc4cc(OCC(F)F)c(-c5cncnc5)cc4[nH]3)c2N)ccc1Oc1ccccc1F")
8.10
>>> reported("Cc1cc2cc(C(=O)c3cnn(-c4ccc(Oc5ccccc5F)cc4C)c3N)[nH]c2cc1N1C(=O)NC2(CCCC2)C1=O")
8.51

Now look at this one.
Summary for this compound, Cc1cc(Oc2ccccc2F)ccc1-n1ncc(C(=O)c2cc3cc(OCC(F)F)c(N4C(=O)[C@@H]5C[C@H](NC(=O)OCC6c7ccccc7-c7ccccc76)CN5C4=O)cc3[nH]2)c1N : pIC50 is 9.48

---

molecular target: human Yes1 enzyme (Homo sapiens); construct: made in house; test: Yes1 enzyme inhibitory activity (time-resolved fluorometry, biotinylated peptide phosphorylation); format: biochemical; conditions: biotinylated peptide phosphorylation, read-out: YES_IC50
PROPERTY_NAME: IC50
Respond with a number, then the unit of measure.

>>> reported("Cc1cc2cc(C(=O)c3cnn(-c4ccc(Oc5ccccc5F)cc4C)c3N)[nH]c2cc1N1C(=O)N[C@@H](C(C)C)C1=O [Example 5-1-476]")
"2.9 nM"

Summary for this compound, Cc1cc(Oc2c(F)cccc2F)ncc1-n1ncc(C(=O)c2cc3cc(N4CCOCC4)c(NS(=O)(=O)CCCF)cc3[nH]2)c1N [Example 4-24-019] : IC50 is 3.9 nM

Summary for this compound, Cc1cc(Oc2ccccc2F)ncc1-n1ncc(C(=O)c2cc3cc(OC(F)F)c(C4CCN(S(C)(=O)=O)CC4)cc3[nH]2)c1N [Example 4-17-009] : IC50 is 1.8 nM

---

IC50 for assorted compounds
target: human Lck enzyme (Homo sapiens, UniProt P06239); construct: purchased Carna Biosciences, Inc. 08-170; assay: Lck enzyme inhibitory activity (time-resolved fluorometry, biotinylated peptide phosphorylation); format: biochemical; settings: biotinylated peptide phosphorylation, read-out: LCK_IC50
Sequence (P06239 whole entry): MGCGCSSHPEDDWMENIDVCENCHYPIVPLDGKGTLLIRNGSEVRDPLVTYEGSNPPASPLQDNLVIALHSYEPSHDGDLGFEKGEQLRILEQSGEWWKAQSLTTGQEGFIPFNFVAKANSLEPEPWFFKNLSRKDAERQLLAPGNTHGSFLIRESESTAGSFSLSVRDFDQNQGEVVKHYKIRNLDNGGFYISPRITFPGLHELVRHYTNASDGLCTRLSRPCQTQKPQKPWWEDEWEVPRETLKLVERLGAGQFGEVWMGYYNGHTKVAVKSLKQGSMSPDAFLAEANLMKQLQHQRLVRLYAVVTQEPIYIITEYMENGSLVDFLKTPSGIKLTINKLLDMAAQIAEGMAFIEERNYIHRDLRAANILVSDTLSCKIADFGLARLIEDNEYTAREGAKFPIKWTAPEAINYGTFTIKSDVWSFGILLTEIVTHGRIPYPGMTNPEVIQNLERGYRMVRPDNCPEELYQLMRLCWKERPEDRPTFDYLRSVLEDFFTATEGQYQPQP
Respond with a number, then the unit of measure.

>>> reported("Cc1cc2cc(C(=O)c3cnn(-c4ccc(Oc5cccc(F)c5F)cc4C)c3N)[nH]c2cc1N1CCCS1(=O)=O")
"7.1 nM"
>>> reported("Cc1cc2cc(C(=O)c3cnn(-c4cnc(Oc5c(F)cccc5F)cc4C)c3N)[nH]c2cc1NS(C)(=O)=O")
"8.2 nM"
>>> reported("Cc1cc(Oc2c(F)cccc2F)ncc1-n1ncc(C(=O)c2cc3cc(OCC(F)F)c(C4CCN(S(C)(=O)=O)CC4)cc3[nH]2)c1N")
"21 nM"
>>> reported("Cc1cc(Oc2ccccc2F)cc(F)c1-n1ncc(C(=O)c2cc3cc(OC(F)F)c(N4CCOCC4)cc3[nH]2)c1N")
"31 nM"
>>> reported("Cc1cc(Oc2c(F)cccc2F)ncc1-n1ncc(C(=O)c2cc3cc(F)c(N4CC5(CCOCC5)NS4(=O)=O)cc3[nH]2)c1N")
"14 nM"

Summary for this compound, Cc1cc(Oc2ccccc2F)ccc1-n1ncc(C(=O)c2cc3cc(OCC(F)F)c(NS(=O)(=O)c4cccc(Cl)c4)cc3[nH]2)c1N : IC50 is 130 nM

Summary for this compound, Cc1cc2[nH]c(C(=O)c3cnn(-c4ccc(Oc5cccc(F)c5F)cc4C)c3N)cc2cc1NS(C)(=O)=O : IC50 is 1.7 nM

Summary for this compound, Cc1cc(Oc2ccccc2F)ccc1-n1ncc(C(=O)c2cc3cc(OCC(F)F)c(C4CCN(C(=O)CN)CC4)cc3[nH]2)c1N : IC50 is 9.2 nM

Summary for this compound, Cc1cc(Oc2ccccc2F)ncc1-n1ncc(C(=O)c2cc3cc(F)c(N4CC(C)(C)NS4(=O)=O)cc3[nH]2)c1N : IC50 is 17 nM

Summary for this compound, Cc1cc(Oc2ccccc2F)ccc1-n1ncc(C(=O)c2cc3cc(OC(F)F)c(N4CCOCC4)cc3[nH]2)c1N : IC50 is 29 nM

---

target: human Lck enzyme (Homo sapiens, UniProt P06239); construct: purchased Carna Biosciences, Inc. 08-170; experiment: Lck enzyme inhibitory activity (time-resolved fluorometry, biotinylated peptide phosphorylation); type: biochemical; details: read-out: LCK_IC50
pIC50 for assorted molecules
Interpret pIC50 as the negative base-10 log of the concentration measured in mol/L.

>>> reported("Cc1cc(Oc2c(F)cccc2F)ncc1-n1ncc(C(=O)c2cc3cc(F)c(N4CCN(S(C)(=O)=O)CC4)cc3[nH]2)c1N")
8.66

Now look at this one.
Summary for this molecule, Cc1cc2cc(C(=O)c3cnn(-c4ccc(Oc5ccccc5F)c(C)c4F)c3N)[nH]c2cc1NS(C)(=O)=O : pIC50 is 7.09

---

molecular target: human Lck enzyme (Homo sapiens, UniProt P06239); construct: purchased Carna Biosciences, Inc. 08-170; assay: Lck enzyme inhibitory activity (time-resolved fluorometry, biotinylated peptide phosphorylation); assay type: biochemical; conditions: biotinylated peptide phosphorylation, read-out: LCK_IC50
IC50 for assorted compounds
Answer in nM, number only, no unit symbol.

Some solved entries appear below for comparison.
>>> reported("Cc1cc(Oc2ccccc2F)ccc1-n1ncc(C(=O)c2cc3cc(OC(F)F)c(C4CCN(S(=O)(=O)C5CC5)CC4)cc3[nH]2)c1N")
17
>>> reported("Cc1cc(Oc2c(F)cccc2F)ncc1-n1ncc(C(=O)c2cc3cc(OC(F)F)c(NS(C)(=O)=O)cc3[nH]2)c1N")
13
>>> reported("Cc1cc2cc(C(=O)c3cnn(-c4cnc(Oc5ccc(F)cc5)cc4C)c3N)[nH]c2cc1NS(C)(=O)=O")
59
>>> reported("Cc1cc(Oc2ccccc2F)ncc1-n1ncc(C(=O)c2cc3cc(OCC(F)F)c(NS(C)(=O)=O)cc3[nH]2)c1N")
14

Summary for this compound, Cc1cc(Oc2ccccc2F)cc(F)c1-n1ncc(C(=O)c2cc3cc(OC(F)F)c(N4CCCC4=O)cc3[nH]2)c1N : IC50 is 8.2

Summary for this compound, Cc1cc2cc(C(=O)c3cnn(-c4ccc(Oc5ccccc5F)cc4C)c3N)[nH]c2cc1N1C(=O)NC2(COC2)C1=O : IC50 is 2.9

Summary for this compound, Cc1cc(Oc2ccccc2F)ncc1-n1ncc(C(=O)c2cc3cc(F)c(NS(C)(=O)=O)cc3[nH]2)c1N : IC50 is 10

Summary for this compound, Cc1cc(Oc2c(F)cccc2F)ncc1-n1ncc(C(=O)c2cc3cc(OCC(F)F)c(NS(=O)(=O)CCC(F)F)cc3[nH]2)c1N : IC50 is 16

---

biological target: human Src enzyme (Homo sapiens, UniProt P12931); construct: purchased Carna Biosciences, Inc. 08-173; test: Src enzyme inhibitory activity (time-resolved fluorometry, biotinylated peptide phosphorylation); assay type: biochemical; settings: biotinylated peptide phosphorylation, read-out: SRC_IC50
Sequence (P12931 whole entry): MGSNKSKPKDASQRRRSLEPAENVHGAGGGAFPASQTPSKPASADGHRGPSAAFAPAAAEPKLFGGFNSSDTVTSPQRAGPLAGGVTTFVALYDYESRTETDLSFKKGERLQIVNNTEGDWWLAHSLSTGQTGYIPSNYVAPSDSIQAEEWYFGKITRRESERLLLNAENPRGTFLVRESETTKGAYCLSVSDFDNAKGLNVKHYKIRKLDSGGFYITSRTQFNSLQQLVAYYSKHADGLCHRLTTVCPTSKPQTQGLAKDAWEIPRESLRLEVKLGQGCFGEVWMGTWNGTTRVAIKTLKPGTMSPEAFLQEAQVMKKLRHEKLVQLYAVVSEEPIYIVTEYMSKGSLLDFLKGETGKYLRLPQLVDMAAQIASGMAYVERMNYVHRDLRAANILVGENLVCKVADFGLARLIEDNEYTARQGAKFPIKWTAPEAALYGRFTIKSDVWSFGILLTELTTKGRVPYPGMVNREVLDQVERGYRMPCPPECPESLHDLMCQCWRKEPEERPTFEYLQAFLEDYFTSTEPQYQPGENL
Sorting guide: entries reporting IC50 beneath 40 nM go in the Fulfilled pile, the rest go in the Not fulfilled pile.

A selection of reference data follows.
>>> class("Cc1cc(Oc2c(F)cccc2F)ncc1-n1ncc(C(=O)c2cc3cc(OCC(F)F)c(NS(=O)(=O)c4cncc(F)c4)cc3[nH]2)c1N")
"Not fulfilled"
>>> class("CC(=O)N1CCC(c2cc3[nH]c(C(=O)c4cnn(-c5ccc(Oc6ccccc6F)cc5C)c4N)cc3cc2OC(F)F)CC1")
"Not fulfilled"
>>> class("Cc1cc(Oc2ccccc2F)ncc1-n1ncc(C(=O)c2cc3cc(F)c(NS(=O)(=O)CC(=O)N4CCOCC4)cc3[nH]2)c1N")
"Fulfilled"
>>> class("Cc1cc2cc(C(=O)c3cnn(-c4cnc(Oc5ccccc5Cl)cc4C)c3N)[nH]c2cc1N1CCCS1(=O)=O")
"Fulfilled"

Next:
Consider Cc1cc(Oc2ccccc2F)ncc1-n1ncc(C(=O)c2cc3cc(OCC(F)F)c(N4CCC(N5CCOCC5)CC4)cc3[nH]2)c1N . Does its IC50 lie strictly below 40 nM? Fulfilled
